I'd appreciate it if you could supply z-score values for the items below.
test: splicing luciferase reporter signal modulators, primary screen, spliceosome inhibition project, cell-based, HEK293, splice +/- reporter (AID 1101); conditions: luminescence, 24 h, higher = more signal, called active from +8 up or from −8 down;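 note: HEK293 cells carrying a splicing-competent luciferase reporter gene; test concentration not given here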
One number for each entry.

Provide z-score for all items below, preserving their order.
1. C=CCOC(=O)[C@H]1[C@@H]2C(=O)O[C@@H](c3ccccc3)[C@@H](c3ccccc3)N2[C@@H](c2ccc(OCCOC(=O)[C@H]3C[C@H]4C(=O)N[C@@H](CC(C)C)C(=O)N4[C@H]3c3cccc(OCCO)c3)cc2)[C@]12C(=O)Nc1ccc(I)cc12
2. O=C1NC(=O)C2C1C=CC(C(O)c1ccco1)N2Nc1ccccn1 (configuration not stated)

A:
1: 0.642; 2: 1.69

----------
assay: basal S. cerevisiae growth modulation, no modifier, primary screen, OD600, strain BY4716, 24 h, basal condition (AID 1173); conditions: OD600, 24 h, higher = more signal, called active from +8 up or from −8 down
I'd appreciate it if you could supply z-score values for the items below.
Answers are plain numbers.

// known answers, use as guide
>  <Molecule>
Cc1ccccc1C(O)C1C=CC2C(=O)N(C)C(=O)C2N1N(c1ccccc1)c1ccccc1 (stereo not drawn)

>  <z-score>
0.0882

$$$$
>  <Molecule>
COCCOC(=O)N1C(=O)[C@@]2(c3ccccc31)[C@H](C(=O)N1CCN(c3ncccn3)CC1)[C@H]1C(=O)O[C@H](c3ccccc3)[C@H](c3ccccc3)N1[C@@H]2c1ccc(O)cc1

>  <z-score>
0.056

$$$$

Provide z-score for all items below, preserving their order.
1. C[N+](C)(C)CCCCCCNC(=O)[C@H]1C[C@H]2C(=O)NCC(=O)N2[C@H]1c1ccc(O)cc1
2. COc1ccc([Si](C)(C)[C@@H]2[C@@H](CCO)O[C@]3(C(=O)N(Cc4ccc(N5CCCCC5=O)cc4)c4ccccc43)[C@H]2C)cc1
3. COC(=O)C(CC#Cc1ccc2c(c1)[C@]1(C(=O)N2)[C@H](C(=O)N2CCN(c3ncccn3)CC2)[C@H]2C(=O)O[C@H](c3ccccc3)[C@H](c3ccccc3)N2[C@@H]1c1ccc(OCCO)cc1)C(=O)OC
4. CN(C)C(=O)C1N=C(c2ccc(OCCCO)cc2)N(c2ccccc2)O1 (stereo not drawn)
5. [N-]=[N+]=Nc1ccccc1C[C@]1(C(N)=O)N=C(c2ccc(OCCCO)cc2)O[C@H]1c1ccccc1N=[N+]=[N-]
6. COc1ccc(CCNC(=O)[C@@]2(Sc3ccc(C)cc3)CC(=O)N(C3Cc4ccccc4C3)[C@@H]2c2ccc(CO)cc2)cc1
7. [N-]=[N+]=NCc1ccccc1C[C@@]1(C(=O)N2CCCCC2)N=C(c2ccc(OCCCO)cc2)O[C@@H]1c1ccccc1

A:
1: -0.275; 2: -0.173; 3: 1.78; 4: -1.29; 5: -2.88; 6: 0.293; 7: -0.59

----------
system: PRMT1 (protein arginine N-methyltransferase 1); test: PRMT1 binders on small-molecule microarrays, primary screen, biochemical, small-molecule microarray, 635 nm fluorescence (AID 1088); conditions: small-molecule microarray binding, higher = more signal;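 note: binding of Prmt1 protein to compounds spotted on small-molecule microarray slides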
Parameter threshold = 1. Response is 1 when composite z-score meets or exceeds it, else -1.

Solved cases (3 shown):
>  <Smi>
COCCCNC(=O)[C@@]1(Sc2ccc(C)cc2)CC(=O)N(C2CCCCC2)[C@@H]1c1ccc(CO)cc1

>  <Target System>
PRMT1 (protein arginine N-methyltransferase 1)

>  <Group>
1

$$$$
>  <Smi>
COCCOC(=O)N1C(=O)[C@@]2(c3cc(C#Cc4ccc(OC)cc4)ccc31)[C@H](c1ccccc1OCCO)N1[C@H](c3ccccc3)[C@H](c3ccccc3)OC(=O)[C@H]1[C@@H]2C(=O)N1CCCCCCC1

>  <Target System>
PRMT1 (protein arginine N-methyltransferase 1)

>  <Group>
1

$$$$
>  <Smi>
COCCCNC(=O)[C@@]1(Cc2ccccc2N=[N+]=[N-])N=C(c2ccc(OCCCO)cc2)O[C@H]1c1ccccc1

>  <Target System>
PRMT1 (protein arginine N-methyltransferase 1)

>  <Group>
1

$$$$

Q: Evaluate COc1ccc([Si](C)(C)[C@@H]2[C@@H](CC(=O)N(CCO)Cc3ccccc3)O[C@]3(C(=O)N(Cc4cccc(N5CCOC5=O)c4)c4ccccc43)[C@H]2C)cc1 : composite z-score at minimum 1?
A: 1

Q: Evaluate COc1ccc(CN(C2=CC[C@@]3(C(N)=O)C(=O)C(Cl)=C(Cl)C(=O)[C@@]3(C#N)C2)S(=O)(=O)c2ccc(Br)cc2)cc1 : composite z-score at minimum 1?
A: -1

Q: Evaluate CN(C)CCCNC(=O)[C@@H]1c2ccccc2C(=O)N(Cc2ccccc2Cl)[C@H]1c1ccc(CO)cc1 : composite z-score at minimum 1?
A: -1

Q: Evaluate COc1ccc([Si](C)(C)[C@@H]2[C@@H](CC(=O)N3Cc4ccccc4C[C@H]3CO)O[C@]3(C(=O)N(C)c4ccccc43)[C@H]2C)cc1 : composite z-score at minimum 1?
A: 1
